assayName: Contrast (gamma) reduction by DI(A)R in single layer film element, C-41 process
conditions: DIR at 0.055 mmol/m^2, relative to non-inhibitor containing check; KODAK FLEXICOLOR (C-41)
quantityMeasured: % Contrast Reduction (%)

CCCOC(=O)Cn1nnnc1SC1C(=O)N(c2ccc(NC(=O)C(CC)Oc3ccc(C(C)(C)CC)cc3C(C)(C)CC)cc2)N=C1N1CCCC1 (stereo not drawn) = -22.6
CCCCCCOC(=O)c1nn(C2C(=O)N(c3ccc(NC(=O)C(CC)Oc4ccc(C(C)(C)CC)cc4C(C)(C)CC)cc3)N=C2C)nc1C (stereo not drawn) = -49.2
CCCCCCCCCCCCCCOc1ccccc1NC(=O)c1cc(Oc2ccc([N+](=O)[O-])cc2CN(C(=O)Sc2nnnn2-c2ccccc2)C(C)C)c2ccccc2c1O = -75.7
CCCCCCCCCCCCCCCCS(=O)(=O)Nc1ccc(Cl)c(NC(=O)C(C(=O)C(C)(C)C)n2ncc(SCC(=O)OCCCCCC)n2)c1 (stereo not drawn) = -58.6
CCCCCCCCCCCCCCCCS(=O)(=O)Nc1ccc(Cl)c(NC(=O)C(Oc2ccc([N+](=O)[O-])cc2CN(CC)C(=O)Sc2nnnn2-c2ccccc2)C(=O)C(C)(C)C)c1 (stereo not drawn) = -63.9
CCCCCCCCCCC(Oc1ccc(S(=O)(=O)c2ccc(O)cc2)cc1)C(=O)Nc1ccc(N2N=C(C)C(n3nc(C)c(C(=O)OCCCCCC)n3)C2=O)cc1 (stereo not drawn) = -50.1

---

assayName: Contrast (gamma) reduction by DI(A)R in single layer film element, C-41 process
conditions: DIR at 0.055 mmol/m^2, relative to non-inhibitor containing check; KODAK FLEXICOLOR (C-41)
# % Contrast Reduction per entry
quantityMeasured: % Contrast Reduction

CCCCCCCCCCCCCCCCS(=O)(=O)Nc1ccc(Cl)c(NC(=O)C(C(=O)C(C)(C)C)n2nc(C)c(C(=O)OCCCCCC)n2)c1 (stereo not shown) = -53.8%
CCC(Oc1ccc(C(C)(C)CC)cc1C(C)(C)CC)C(=O)Nc1ccc(N2N=C(N3CCCC3)C(Sc3nnnn3-c3ccccc3)C2=O)cc1 (stereo not shown) = -67.1%
CCCCCCCCCCCCCCOc1ccccc1NC(=O)c1cc(Sc2nnnn2CC)c2ccccc2c1O = -2.4%
CCCCCCCCCCCCOC(=O)C(C)OC(=O)c1ccc(Cl)c(NC(=O)C(C(=O)Nc2cc(C(=O)OC(C)C(=O)OCCCCCCCCCCCC)ccc2Cl)n2nnc3cc(Cl)c(Cl)cc32)c1 (stereo not shown) = -20.0%
CCCCCCCCCCCCCCOc1ccccc1NC(=O)c1cc(Sc2nnnn2-c2ccccc2)c2ccccc2c1O = -75.4%
CCCCCCCCCCCCCCOc1ccccc1NC(=O)c1cc(Oc2ccc(CSc3nnnn3Cc3ccc(OC)cc3)cc2[N+](=O)[O-])c2ccccc2c1O = -55.4%
CCCCCCCCCCCCCCCCS(=O)(=O)Nc1cc(CSc2nnnn2CC(=O)OCCC)ccc1Oc1cc(C(N)=O)c(O)c2ccccc12 = -34.5%

---

assayName: Contrast (gamma) reduction by DI(A)R in single layer film element, C-41 process
conditions: DIR at 0.055 mmol/m^2, relative to non-inhibitor containing check; KODAK FLEXICOLOR (C-41)
quantityMeasured: % Contrast Reduction (%)

CCCCCCCCCCCCCCOc1ccccc1NC(=O)c1cc(Oc2ccc(CSc3nnnn3-c3ccccc3)cc2[N+](=O)[O-])c2ccccc2c1O [CDIR-4] = -77.1
CCCCCCCCCCCCCCOc1ccccc1NC(=O)c1cc(Oc2ccc(CSc3nnnn3-c3ccccc3)cc2[N+](=O)[O-])c2ccccc2c1O [CDIR-5] = -70.5
CCCCCCCCCCCCOc1ccc(C)cc1NC(=O)c1cc(Oc2ccc(CSc3nnnn3CC(=O)OCCC)cc2[N+](=O)[O-])c2ccccc2c1O = -24.5
CCCCCCCCCCCCCCCCS(=O)(=O)Nc1ccc(Cl)c(NC(=O)C(Oc2ccc([N+](=O)[O-])cc2CN(CC)C(=O)Sc2nnnn2CC(=O)OCCC)C(=O)C(C)(C)C)c1 (stereo not shown) = -25.3

Values were extracted from patent US6190849A.
